Known P3_MyD88 Rank (before) of a selection of sequences
testedTarget: MyD88^TIR (Homo sapiens, UniProt Q99836)
Construct: MyD88 (residues 148–296); 6xHis; made in house; host or cells: E. coli BL21 (DE3)
Sequence (Q99836 148-296): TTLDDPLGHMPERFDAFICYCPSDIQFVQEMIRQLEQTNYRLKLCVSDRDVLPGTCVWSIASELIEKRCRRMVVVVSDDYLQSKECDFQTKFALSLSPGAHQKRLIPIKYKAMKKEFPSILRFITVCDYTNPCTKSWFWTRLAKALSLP
experiment: T‐Surf phage library (P8 and P3) selection against MyD88^TIR, four rounds, NGS read counts
Format: binding
testContext: P3 library, 4R selection against MyD88, rank before grouping
Answer with a number only.

Looking up KEVEGWRGALTKKASL , I found its P3_MyD88 Rank (before) recorded as 3614

Looking up YLKCGYPCFCDRLRFA , I found its P3_MyD88 Rank (before) recorded as 1566

Looking up NEWVNAWTSKANRRVG , I found its P3_MyD88 Rank (before) recorded as 3395

Looking up SSLREGLWRLLELGKK , I found its P3_MyD88 Rank (before) recorded as 3255

Looking up NHDLDLPRGKAIKPEILG , I found its P3_MyD88 Rank (before) recorded as 3460

Looking up EWIWDKLIYALSRNPH , I found its P3_MyD88 Rank (before) recorded as 2127

Where do these numbers come from? They come from paper PMC11714206.
